Target: rat mGlu3 (Rattus norvegicus, UniProt P31422)
Sequence (P31422 23-879): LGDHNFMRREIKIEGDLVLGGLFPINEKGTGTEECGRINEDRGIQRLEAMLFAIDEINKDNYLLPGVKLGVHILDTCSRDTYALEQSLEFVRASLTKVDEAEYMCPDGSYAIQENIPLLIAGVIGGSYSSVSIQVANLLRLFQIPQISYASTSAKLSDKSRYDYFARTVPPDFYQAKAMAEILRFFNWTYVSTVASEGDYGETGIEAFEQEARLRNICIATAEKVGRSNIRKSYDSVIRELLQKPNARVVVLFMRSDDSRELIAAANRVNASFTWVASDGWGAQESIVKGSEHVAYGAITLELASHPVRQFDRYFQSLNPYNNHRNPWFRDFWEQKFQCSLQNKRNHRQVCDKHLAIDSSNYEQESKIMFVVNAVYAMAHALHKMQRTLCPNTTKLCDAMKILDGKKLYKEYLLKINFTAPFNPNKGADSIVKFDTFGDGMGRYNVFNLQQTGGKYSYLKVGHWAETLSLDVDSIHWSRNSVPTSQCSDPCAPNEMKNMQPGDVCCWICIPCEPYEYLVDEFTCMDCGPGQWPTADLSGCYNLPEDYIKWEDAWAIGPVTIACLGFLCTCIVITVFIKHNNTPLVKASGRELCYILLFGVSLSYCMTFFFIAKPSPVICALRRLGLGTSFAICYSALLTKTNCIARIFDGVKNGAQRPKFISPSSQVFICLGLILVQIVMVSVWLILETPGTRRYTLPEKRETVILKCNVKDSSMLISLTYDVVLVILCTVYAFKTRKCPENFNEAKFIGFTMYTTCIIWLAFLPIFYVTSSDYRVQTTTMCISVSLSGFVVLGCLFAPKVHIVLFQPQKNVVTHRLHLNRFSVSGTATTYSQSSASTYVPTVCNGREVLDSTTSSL
Conditions: calcium mobilization; average of n ≥ 3
measure: mGlu3 pIC50 (± SEM)
Lab note: record just the number, no unit beside it.

These solved cases illustrate the format of a correct answer.
INSERT INTO measurements (smiles_record, target_or_test_system, recorded_result) VALUES
  ('C[C@@H]1CN(c2cccc(Cl)c2)C(=O)c2cc(COc3ccc(Cl)cn3)nn21', 'rat mGlu3 (Rattus norvegicus, UniProt P31422)', 6.25),
  ('C[C@@H]1CN(c2ccc(F)cc2)C(=O)c2cc(COc3cc(C(F)(F)F)ccn3)nn21', 'rat mGlu3 (Rattus norvegicus, UniProt P31422)', 5.78),
  ('C[C@@H]1CN(c2ccc(F)cc2)C(=O)c2cc(COc3ccc(C(F)(F)F)cc3)nn21', 'rat mGlu3 (Rattus norvegicus, UniProt P31422)', 5.73),
  ('C[C@@H]1CN(c2ccccc2C#N)C(=O)c2cc(COc3ccc(Cl)cn3)nn21', 'rat mGlu3 (Rattus norvegicus, UniProt P31422)', 6.37);

Bench note: what mGlu3 pIC50 (± SEM) did COc1cccc(N2C[C@@H](C)n3nc(COc4ccc(Cl)cn4)cc3C2=O)c1 show?
6.50

Which mGlu3 pIC50 (± SEM) is reported for this compound? C[C@@H]1CN(c2ncccc2F)C(=O)c2cc(COc3ccc(Cl)cn3)nn21
6.44

# get_value(readout='mGlu3 pIC50 (± SEM)', item= C[C@@H]1CN(c2ccccc2F)C(=O)c2cc(COc3ccc(Cl)cn3)nn21 )
6.65

# input compound: Cc1ccc(N2C[C@@H](C)n3nc(COc4ccc(Cl)cn4)cc3C2=O)cc1 ; wanted: its mGlu3 pIC50 (± SEM)
6.39

Quick one: mGlu3 pIC50 (± SEM) of COc1ccnc(OCc2cc3n(n2)[C@H](C)CN(c2ccc(F)cc2)C3=O)c1 ?
5.43

Looking for the measured mGlu3 pIC50 (± SEM) of C[C@@H]1CN(c2cccc(F)c2)C(=O)c2cc(COc3ccc(Cl)cn3)nn21 , can you help?
6.69

Would you kindly share the measured mGlu3 pIC50 (± SEM) for C[C@@H]1CN(c2ccc(F)cc2)C(=O)c2cc(COc3ccc(F)cc3F)nn21 ?
6.38

* * *

List of mGlu5 pEC50 (± SEM) values.
Target: rat mGlu5 (Rattus norvegicus)
Sequence (P31424 21-1203): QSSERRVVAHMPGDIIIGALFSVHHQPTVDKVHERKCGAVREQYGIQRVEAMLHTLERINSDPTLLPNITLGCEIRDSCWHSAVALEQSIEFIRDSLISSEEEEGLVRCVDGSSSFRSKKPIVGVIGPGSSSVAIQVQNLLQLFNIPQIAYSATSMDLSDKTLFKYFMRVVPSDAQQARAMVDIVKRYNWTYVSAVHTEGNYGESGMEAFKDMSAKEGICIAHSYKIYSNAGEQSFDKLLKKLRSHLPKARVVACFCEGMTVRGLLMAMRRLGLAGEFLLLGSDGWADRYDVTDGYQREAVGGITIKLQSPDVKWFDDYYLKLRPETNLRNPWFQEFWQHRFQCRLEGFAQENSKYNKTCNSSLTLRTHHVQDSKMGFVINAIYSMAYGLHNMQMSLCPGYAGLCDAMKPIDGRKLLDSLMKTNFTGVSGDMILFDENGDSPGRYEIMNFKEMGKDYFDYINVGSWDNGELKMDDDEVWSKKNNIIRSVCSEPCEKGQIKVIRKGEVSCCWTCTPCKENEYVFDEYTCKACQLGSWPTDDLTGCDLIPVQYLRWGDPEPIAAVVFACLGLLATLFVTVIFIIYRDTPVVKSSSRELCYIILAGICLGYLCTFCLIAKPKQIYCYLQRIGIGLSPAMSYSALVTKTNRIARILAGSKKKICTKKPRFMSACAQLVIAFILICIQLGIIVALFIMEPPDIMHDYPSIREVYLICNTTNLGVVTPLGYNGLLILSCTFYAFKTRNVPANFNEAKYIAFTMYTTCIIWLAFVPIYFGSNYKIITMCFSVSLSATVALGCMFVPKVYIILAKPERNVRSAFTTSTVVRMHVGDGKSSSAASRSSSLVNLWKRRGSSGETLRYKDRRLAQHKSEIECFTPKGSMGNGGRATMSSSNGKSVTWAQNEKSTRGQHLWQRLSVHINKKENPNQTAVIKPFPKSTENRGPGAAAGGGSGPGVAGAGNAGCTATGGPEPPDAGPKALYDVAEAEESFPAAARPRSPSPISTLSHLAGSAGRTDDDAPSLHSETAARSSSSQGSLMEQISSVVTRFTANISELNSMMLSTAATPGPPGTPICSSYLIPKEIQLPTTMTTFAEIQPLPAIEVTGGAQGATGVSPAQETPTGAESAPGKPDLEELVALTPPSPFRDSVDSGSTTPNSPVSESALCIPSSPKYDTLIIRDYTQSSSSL
Assay: Calcium mobilization mGlu5 assay
Format: cell-based
Details: calcium mobilization; average of n ≥ 3 (n = 2 where marked)

Known mGlu5 pEC50 (± SEM) results, listed for orientation:
INSERT INTO results (smiles_record, recorded_result) VALUES
  ('C[C@@H]1CN(c2cccnc2F)C(=O)c2cc(COc3ccc(Cl)cn3)nn21', '<4.5'),
  ('COc1cccnc1OCc1cc2n(n1)[C@H](C)CN(c1ccc(F)cc1)C2=O', '<4.5'),
  ('C[C@@H]1CN(c2cncc(F)c2)C(=O)c2cc(COc3ccc(Cl)cn3)nn21', '<4.5'),
  ('C[C@@H]1CN(c2cncc(C#N)c2)C(=O)c2cc(COc3ccc(Cl)cn3)nn21', '<4.5'),
  ('C[C@@H]1CN(c2cccnc2)C(=O)c2cc(COc3ccc(Cl)cn3)nn21', '<4.5');

Query: mGlu5 pEC50 (± SEM); subject: C[C@@H]1CN(c2ccccn2)C(=O)c2cc(COc3ccc(Cl)cn3)nn21
<4.5

Fill in: mGlu5 pEC50 (± SEM) of C[C@@H]1CN(c2ccc(F)cc2)C(=O)c2cc(COc3cccc(C(F)(F)F)n3)nn21 is ___
<4.5

State the recorded mGlu5 pEC50 (± SEM) for this entry: C[C@@H]1CN(c2ccc(F)cc2)C(=O)c2cc(COc3ccc(C(F)(F)F)cc3)nn21
<4.5

Consider the compound shown here: CCOc1ccc(OCc2cc3n(n2)[C@H](C)CN(c2ccc(F)cc2)C3=O)cc1 What is its recorded mGlu5 pEC50 (± SEM)?
<4.5

Need mGlu5 pEC50 (± SEM) of C[C@@H]1CN(c2ncccc2C#N)C(=O)c2cc(COc3ccc(Cl)cn3)nn21 , thanks.
<4.5

* * *

Catalogue of mGlu3 pIC50 (± SEM) values
Molecular target: rat mGlu3 (Rattus norvegicus, UniProt P31422)
Details: calcium mobilization; average of n ≥ 3
Just the number, please, no unit after it.

INSERT INTO measurements (smiles_record, recorded_result) VALUES
  ('C[C@@H]1CN(c2cccnc2F)C(=O)c2cc(COc3ccc(Cl)cn3)nn21', 6.41),
  ('COc1ccc(N2C[C@@H](C)n3nc(COc4ccc(F)cn4)cc3C2=O)cc1', 6.49),
  ('C[C@@H]1CN(c2ccc(C#N)cc2)C(=O)c2cc(COc3ccc(Cl)cn3)nn21', 6.27);

Under rat mGlu3 (Rattus norvegicus, UniProt P31422): mGlu3 pIC50 (± SEM) value of C[C@@H]1CN(c2ccc(F)cc2)C(=O)c2cc(COc3ccc(OC(F)(F)F)cc3)nn21 ?
5.39

Which mGlu3 pIC50 (± SEM) is reported with rat mGlu3 (Rattus norvegicus, UniProt P31422) for this entry: C[C@@H]1CN(c2cccnc2)C(=O)c2cc(COc3ccc(Cl)cn3)nn21 ?
6.22

* * *

The entries below are paired with their reported mGlu3 pIC50 (± SEM).
Molecular target: rat mGlu3 (Rattus norvegicus)
Details: calcium mobilization; average of n ≥ 3
Number only, no unit.

INSERT INTO measurements (smiles_record, measure, recorded_result) VALUES
  ('C[C@@H]1CN(c2ccncc2)C(=O)c2cc(COc3ccc(F)cn3)nn21', 'mGlu3 pIC50 (± SEM)', 6.05),
  ('C[C@@H]1CN(c2cccc(F)c2)C(=O)c2cc(COc3ccc(F)cn3)nn21', 'mGlu3 pIC50 (± SEM)', 6.72);

Okay, now this compound:
Form: Entry = COc1ccc(OCc2cc3n(n2)[C@H](C)CN(c2ccc(F)cc2)C3=O)cc1 | System = rat mGlu3 (Rattus norvegicus) | mGlu3 pIC50 (± SEM) = ____
5.98
